pIC50: −log10 of the molar value.
The following molecules were reported with pIC50 values on UniProtKB P48736 in different studies.

Sample records with pIC50:
{"molecule": "COc1ccc(-c2ccnc3c2c(/C=C2\\Oc4cccc(O)c4C2=O)cn3C)cc1S(=O)(=O)N1CCOCC1", "pIC50": 7.10}
{"molecule": "CCc1nn(Cc2cc3cccc(C)c3c(=O)n2-c2ccccc2C)c2ncnc(N)c12", "pIC50": "> 5.00"}
{"molecule": "C[C@H](Nc1ncnc2[nH]cnc12)c1cc2cccc(Cl)c2c(OCC(C)(C)O)n1", "pIC50": "> 5.00"}
{"molecule": "C=CC(=O)NCC(=O)N1CCN(Cc2cc3nc(-c4cccc5[nH]ncc45)nc(N4CCOCC4)c3s2)CC1", "pIC50": "< 6.00"}
{"molecule": "CN1CCN(c2ccc(-c3ccnc4c3c(/C=C3\\Oc5cccc(O)c5C3=O)cn4C)cc2)CC1", "pIC50": 6.83}
{"molecule": "CNC(=O)Nc1ccc(-c2nc(N3CCOCC3)nc3c2cnn3CC(C)(C)O)cc1", "pIC50": "< 7.00"}

// field: pIC50; key: COCC1CN(C(=O)c2ccc(-c3ccnc4c3c(/C=C3\Oc5cccc(O)c5C3=O)cn4C)cc2)CCO1 (stereo not drawn) ; value = 6.67

// field: pIC50; key: "C[C@H](NC(=O)c1c(N)nn2cccnc12)c1cc2cccc(C(F)(F)F)c2c(=O)n1-c1ccccc1" ; value = 6.00 to 7.00

// field: pIC50; key: CN1CCC(N(C)C(=O)C2CCN(c3ccnc4c3c(C=C3Oc5ccc(NC(=O)Nc6cccnc6)cc5C3=O)cn4C)CC2)C1 (stereo not drawn) ; value = 5.03
